# sandwich binding signal listing for each entry below
Biological target: T1, recombinant soluble human TREM2 protein (human TREM2 ECD-FlagHis) (human, UniProt Q9NZC2 19-174)
T1 sequence: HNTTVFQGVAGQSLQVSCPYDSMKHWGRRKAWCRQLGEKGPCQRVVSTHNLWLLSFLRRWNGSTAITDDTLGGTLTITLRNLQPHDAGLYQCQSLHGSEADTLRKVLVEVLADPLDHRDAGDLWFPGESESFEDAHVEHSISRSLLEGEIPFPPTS
Assay: Octet BLI binning; competitor: load Ab 26C10
Write the value as a bare number.

13E7 (antibody, human IgG2, V domains shown, human IgG2 from hybridoma) VH: EVQLVQSGAEVKKPGESLMISCKGSGYSFTSYWIGWVRQMPGKGLEWMGIIYPGDSDTRYSPSFQGQVTISADKSISTAYLQWSSLKASDTAMYFCARRRQGIWGDALDFWGQGTLVTVSS VL: EIVMTQSPATLSVSPGERATLSCRASQSVSSNLAWFQQKPGQAPRLLIYGASTRATGIPARFSVSGSGTEFTLTISSLQSEDFAVYYCLQDNNWPPTFGPGTKVDIK | 0.369

Now for the binder whose sandwich binding signal we want.
Give me measured sandwich binding signal, please, for this binder: 10E3 (antibody, human IgG2, V domains shown, human IgG2 from hybridoma) VH: EVQLVQSGAEVKKPGESLMISCKGSGYSFTNYWIGWVRQMPGKGLEWMGIIYPGDSDTRYSPSFQGQVTISADKSISTAYLQWSSLKASDTAMYFCARRRQGIWGDALDIWGQGTLVTVSS VL: EIVMTQSPATLSVSPGERATLSCRASQSVSSNLAWFQQKPGQAPRLLIYGASTRATGIPARFSVSGSGTEFTLTISSLQSEDFAFYYCLQDNNWPPTFGPGTKVDIK
0.348

The measurements presented in this section are drawn from patent US20220204611A1.
